Molecular target: T1, cyno FcRn/b2M (cyno, UniProt Q8SPV9 24-297; Q8SPW0 21-119, biotinylated)
T1 construct: bought recombinant biotinylated protein (Immunitrack ITF05 or ACRO FCM-C82W5); also called cFcRn; cFcRn/cb2M
T1 sequence (Q8SPV9 24-297 limits assumed, chain 1 of 2): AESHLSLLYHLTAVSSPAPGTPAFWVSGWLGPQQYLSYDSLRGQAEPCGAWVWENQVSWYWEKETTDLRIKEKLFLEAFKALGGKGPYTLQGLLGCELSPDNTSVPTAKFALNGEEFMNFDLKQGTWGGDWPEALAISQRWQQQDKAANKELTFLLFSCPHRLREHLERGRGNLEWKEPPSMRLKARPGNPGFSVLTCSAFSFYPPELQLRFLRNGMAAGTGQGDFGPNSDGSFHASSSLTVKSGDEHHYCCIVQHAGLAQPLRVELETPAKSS
T1 sequence (Q8SPW0 21-119 limits assumed, chain 2 of 2): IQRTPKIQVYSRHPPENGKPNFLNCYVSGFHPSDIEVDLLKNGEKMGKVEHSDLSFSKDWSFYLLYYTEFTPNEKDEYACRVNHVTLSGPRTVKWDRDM
Test: SPR pH 6.0;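 further: surface plasmon resonance kinetics at 25 °C, diluted periplasmic extracts injected over immobilized ligand surfaces, 120 s association then 600–3600 s dissociation, running buffer containing 150 mM NaCl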
Assign koff to each entry below.
One number for each entry, in s⁻¹.

Below are worked cases with known answers.
binder	reading unit	test value
T0263018B11 T96M (VHH, name in Kabat numbering, FLAG3-His6 tagged) VHH: EVQLVESGGGVVQPGGSLRLSCAASGFTFSSYAMYWVRQAPGKGLEWVSAISSGGGSTDYADSVKGRFTISRDNSKNTLYLQMNSLRPEDTALYYCAADMLYTSLTWYSYWGQGTLVTVSS	s⁻¹	0.00097
T0263018B11 W100cF (VHH, name in Kabat numbering, FLAG3-His6 tagged) VHH: EVQLVESGGGVVQPGGSLRLSCAASGFTFSSYAMYWVRQAPGKGLEWVSAISSGGGSTDYADSVKGRFTISRDNSKNTLYLQMNSLRPEDTALYYCAADTLYTSLTFYSYWGQGTLVTVSS	s⁻¹	0.0024
T0263018B11 S56T (VHH, name in Kabat numbering, FLAG3-His6 tagged) VHH: EVQLVESGGGVVQPGGSLRLSCAASGFTFSSYAMYWVRQAPGKGLEWVSAISSGGGTTDYADSVKGRFTISRDNSKNTLYLQMNSLRPEDTALYYCAADTLYTSLTWYSYWGQGTLVTVSS	s⁻¹	0.001
T0263018B11 S30T (VHH, name in Kabat numbering, FLAG3-His6 tagged) VHH: EVQLVESGGGVVQPGGSLRLSCAASGFTFTSYAMYWVRQAPGKGLEWVSAISSGGGSTDYADSVKGRFTISRDNSKNTLYLQMNSLRPEDTALYYCAADTLYTSLTWYSYWGQGTLVTVSS	s⁻¹	0.0014
T0263018B11 Y100dF (VHH, name in Kabat numbering, FLAG3-His6 tagged) VHH: EVQLVESGGGVVQPGGSLRLSCAASGFTFSSYAMYWVRQAPGKGLEWVSAISSGGGSTDYADSVKGRFTISRDNSKNTLYLQMNSLRPEDTALYYCAADTLYTSLTWFSYWGQGTLVTVSS	s⁻¹	0.0017
T0263018B11 G26S (VHH, name in Kabat numbering, FLAG3-His6 tagged) VHH: EVQLVESGGGVVQPGGSLRLSCAASSFTFSSYAMYWVRQAPGKGLEWVSAISSGGGSTDYADSVKGRFTISRDNSKNTLYLQMNSLRPEDTALYYCAADTLYTSLTWYSYWGQGTLVTVSS	s⁻¹	0.00079
T0263018B11 Y32Q (VHH, name in Kabat numbering, FLAG3-His6 tagged) VHH: EVQLVESGGGVVQPGGSLRLSCAASGFTFSSQAMYWVRQAPGKGLEWVSAISSGGGSTDYADSVKGRFTISRDNSKNTLYLQMNSLRPEDTALYYCAADTLYTSLTWYSYWGQGTLVTVSS	s⁻¹	0.0013

Lookup: # lookup: koff of T0263018B11 T100bL (VHH, name in Kabat numbering, FLAG3-His6 tagged) VHH: EVQLVESGGGVVQPGGSLRLSCAASGFTFSSYAMYWVRQAPGKGLEWVSAISSGGGSTDYADSVKGRFTISRDNSKNTLYLQMNSLRPEDTALYYCAADTLYTSLLWYSYWGQGTLVTVSS
Found: 0.0032
